Data origin: patent US4316955A

# System: A49492 (Streptomyces capillispira)
# PROTOCOL: Antibiotic disk sensitivity test of A49492; note: key: +: a plus indicates that a zone of inhibition was formed; -: a minus sign indicates that there was no inhibition zone
# Assay type: cell-based
# CONDITION INFO: ISP No. 2 agar seeded with 2% vegetative inoculum; amount per disk: Erythromycin 15 μg, Keflin 30 μg, Lincomycin 2 μg, Nystatin 100 U, Polymixin B 300 U, Streptomycin 10 μg, Tetracycline 30 μg, Vancomycin 5 μg
MEASURE NAME: Result (zone of inhibition, disk sensitivity)

CN(C)C1C(=O)C(C(N)=O)=C(O)C2(O)C(=O)C3=C(O)c4c(O)cccc4C(C)(O)C3CC12 (centres unmarked) | +
[H]/N=C(/N)N[C@H]1[C@H](O)[C@@H](O)[C@H](O[C@@H]2O[C@@H](C)[C@](O)(C=O)[C@H]2O[C@@H]2O[C@@H](CO)[C@H](O)[C@@H](O)[C@@H]2NC)[C@@H](N/C(N)=N\[H])[C@@H]1O | +
CCC[C@@H]1C[C@@H](C(=O)N[C@@H]([C@H]2O[C@H](SC)[C@H](O)[C@@H](O)[C@H]2O)[C@@H](C)O)N(C)C1 | -
CN[C@H](CC(C)C)C(=O)N[C@H]1C(=O)N[C@@H](CC(N)=O)C(=O)N[C@H]2C(=O)N[C@H]3C(=O)N[C@H](C(=O)N[C@H](C(=O)O)c4cc(O)cc(O)c4-c4cc3ccc4O)[C@H](O)c3ccc(c(Cl)c3)Oc3cc2cc(c3O[C@@H]2O[C@H](CO)[C@@H](O)[C@H](O)[C@H]2O[C@H]2C[C@](C)(N)[C@H](O)[C@H](C)O2)Oc2ccc(cc2Cl)[C@H]1O | +

Now turn to the next compound.
## Task Fill in the recorded Result (zone of inhibition, disk sensitivity) for this compound, with A49492 (Streptomyces capillispira) as test system: CC(=O)OCC1=C(C(=O)O)N2C(=O)[C@@H](NC(=O)Cc3cccs3)[C@H]2SC1
## Result -

###

# System: A49492 (Streptomyces capillispira)
# PROTOCOL: Antibiotic disk sensitivity test of A49492; note: key: +: a plus indicates that a zone of inhibition was formed; -: a minus sign indicates that there was no inhibition zone
# Format: cell-based
# CONDITION INFO: ISP No. 2 agar seeded with 2% vegetative inoculum; amount per disk: Erythromycin 15 μg, Keflin 30 μg, Lincomycin 2 μg, Nystatin 100 U, Polymixin B 300 U, Streptomycin 10 μg, Tetracycline 30 μg, Vancomycin 5 μg
MEASURE NAME: Result (zone of inhibition, disk sensitivity)

C[C@@H]1[C@H](O)[C@@H](C)/C=C/C=C/CC/C=C/C=C/C=C/C=C/C(O[C@H]2O[C@H](C)[C@@H](O)[C@H](N)[C@@H]2O)CC2O[C@](O)(CC(O)C(O)CCC(O)CC(O)CC(O)CC(=O)O[C@H]1C)CC(O)C2C(=O)O (some centres unmarked) | -
CC[C@H]1OC(=O)[C@H](C)[C@@H](O[C@H]2C[C@@](C)(OC)[C@@H](O)[C@H](C)O2)[C@H](C)[C@@H](O[C@@H]2O[C@H](C)C[C@H](N(C)C)[C@H]2O)[C@](C)(O)C[C@@H](C)C(=O)[C@H](C)[C@@H](O)[C@]1(C)O | -
